assay-summary: Hepatocyte stability assay, rat hepatocytes
Format: in vitro ADME
condition-set: cryopreserved hepatocytes, read-out: Hepatocytes T½ (min) Rat
experimental-endpoint: half-life at 1 μM (min)

CC(C)(c1ccc(OCc2ocnc2S(C)(=O)=O)cc1)c1cc(Cl)c(OCCCl)c(Cl)c1 75

I: CC(C)(c1ccc(OCc2ncc(S(C)(=O)=O)s2)cc1)c1cc(Cl)c(OCCCl)c(C#N)c1
II: CC(C)(c1ccc(OCc2ocnc2S(C)(=O)=O)cc1)c1cc(Cl)c(OCCCl)c(C#N)c1
III: CC(C)(c1ccc(OCc2coc(NS(C)(=O)=O)n2)cc1)c1cc(Cl)c(OCCCl)c(Cl)c1
Hey, quick one: sort these by half-life at 1 μM, low to high? // rank by listing labels in the order requested
II, III, I
(II: 31 min, III: 56 min, I: 94 min)

----------
// values below are reported microsomal CLint at 1 μM
assay-summary: Microsomal stability assay, mouse liver microsomes
Assay type: in vitro ADME
condition-set: mouse, liver microsomes, pH 7.4, mouse liver microsomes, 1 μM compound, 0.5 mg/mL protein, 37° C.; read-out: MLM +30/− NADPH: Clint (μL/min/mg protein)

See these solved cases before continuing.
compound	microsomal CLint at 1 μM
CC(C)(c1ccc(OCc2nc(C(N)=O)co2)cc1)c1cc(Cl)c(OCCCl)c(C#N)c1	< 12 µL/min/mg
CC(C)(c1ccc(OCc2cnc(C(N)=O)o2)cc1)c1cc(Cl)c(CCCCl)c(C#N)c1	12 to 48 µL/min/mg
Cc1cc(C(C)(C)c2ccc(OC(C)c3ocnc3S(C)(=O)=O)cc2)cc(C#N)c1OCCCl (centres unmarked)	≥ 48 µL/min/mg
CC(=O)Nc1nccc(C(C)Oc2ccc(C(C)(C)c3cc(Cl)c(OCCCl)c(C#N)c3)cc2)n1 (centres unmarked)	≥ 48 µL/min/mg
CC(C)(c1ccc(OCc2nc(C(N)=O)cs2)cc1)c1cc(Cl)c(OCCCl)c(C#N)c1	< 12 µL/min/mg
CC(C)(c1ccc(OCc2cnc(NS(C)(=O)=O)cn2)cc1)c1cc(Cl)c(OCCCl)c(C#N)c1	< 12 µL/min/mg
CC(C)(c1ccc(OCc2cnc(Cl)o2)cc1)c1cc(Cl)c(OCCCl)c(C#N)c1	< 12 µL/min/mg
C[C@H](Oc1ccc(C(C)(C)c2cc(Cl)c(OCCCl)c(C#N)c2)cc1)c1ccnc(NS(C)(=O)=O)n1 (single isomer, unassigned)	< 12 µL/min/mg

Cc1nc(S(C)(=O)=O)c(COc2ccc(C(C)(C)c3cc(Cl)c(OCCCl)c(Cl)c3)cc2)o1 has a reported microsomal CLint at 1 μM of 12 to 48 µL/min/mg

CC(C)(c1ccc(C(=O)Nc2ccnc(NS(C)(=O)=O)n2)cc1)c1cc(Cl)c(OCCCl)c(Cl)c1 has a reported microsomal CLint at 1 μM of < 12 µL/min/mg

Cc1nc(N)cc(COc2ccc(C(C)(C)c3cc(Cl)c(OCCCl)c(C#N)c3)cc2)n1 has a reported microsomal CLint at 1 μM of ≥ 48 µL/min/mg

CC(C)(c1ccc(OCc2coc(S(C)(=O)=O)n2)cc1)c1cc(Cl)c(OCCCl)c(Cl)c1 has a reported microsomal CLint at 1 μM of < 12 µL/min/mg

CC(C)(c1ccc(OCc2nc(NS(C)(=O)=O)nc3c2CCOC3)cc1)c1cc(Cl)c(OCCCl)c(C#N)c1 has a reported microsomal CLint at 1 μM of ≥ 48 µL/min/mg

CC(C)(c1ccc(OCc2nccc(NS(C)(=O)=O)n2)cc1)c1cc(Cl)c(OCCCl)c(Cl)c1 has a reported microsomal CLint at 1 μM of < 12 µL/min/mg

CC(C)(c1ccc(OCc2ccnc(NS(C)(=O)=O)n2)cc1)c1cc(Cl)c(OCCCl)c(C#N)c1 has a reported microsomal CLint at 1 μM of < 12 µL/min/mg

CC(C)(c1ccc(OCc2ccnc(N3CCCS3(=O)=O)n2)cc1)c1cc(Cl)c(OCCCl)c(C#N)c1 has a reported microsomal CLint at 1 μM of ≥ 48 µL/min/mg

CC(N)(c1ccc(OCc2ocnc2S(C)(=O)=O)cc1)c1cc(Cl)c(OCCCl)c(C#N)c1 (centres unmarked) has a reported microsomal CLint at 1 μM of ≥ 48 µL/min/mg

CC(C)(c1ccc(OCc2coc(NS(C)(=O)=O)n2)cc1)c1cc(Cl)c(OCCCl)c(Cl)c1 has a reported microsomal CLint at 1 μM of < 12 µL/min/mg

CC(C)(c1ccc(OCc2ocnc2C#N)cc1)c1cc(Cl)c(OCCCl)c(Cl)c1 has a reported microsomal CLint at 1 μM of 12 to 48 µL/min/mg

CC(Oc1ccc(C(C)(C)c2cc(Cl)c(OCCCl)c(C#N)c2)cc1)c1ccnc(S(C)(=O)=O)n1 (centres unmarked) has a reported microsomal CLint at 1 μM of ≥ 48 µL/min/mg

CC(C)(c1ccc(OCc2cc(CN)nc(NS(C)(=O)=O)n2)cc1)c1cc(Cl)c(OCCCl)c(C#N)c1 has a reported microsomal CLint at 1 μM of < 12 µL/min/mg

Cn1c(COc2ccc(C(C)(C)c3cc(Cl)c(OCCCl)c(C#N)c3)cc2)ccc1S(C)(=O)=O has a reported microsomal CLint at 1 μM of ≥ 48 µL/min/mg

Value source: patent US11059795B2
